- TEST SYSTEM: T1, human PD-L2 protein (monomeric, soluble analyte) (human, UniProt Q9BQ51 20-220)
- T1 construct: Recombinant human PD-L2 protein used as analyte on Octet or Biacore; a soluble form would lack the transmembrane part; also called monomeric PD-L2; monomeric human ligand
- T1 sequence: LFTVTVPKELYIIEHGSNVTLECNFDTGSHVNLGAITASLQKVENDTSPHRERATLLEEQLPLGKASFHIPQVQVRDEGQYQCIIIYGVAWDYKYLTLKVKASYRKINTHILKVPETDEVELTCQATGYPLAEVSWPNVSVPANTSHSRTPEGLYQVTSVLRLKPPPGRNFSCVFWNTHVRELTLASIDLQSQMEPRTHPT
- PROCEDURE DETAILS: Biacore, IgG KD, monovalent format, human PD-L2-His
Listing of recorded Kd by entry.

{"BINDER": "ADI-38002 (antibody, human IgG1, kappa, V domains shown, Human IgG1 (GASDIE); Some in vivo work used a mouse IgG2a form; also called Ab-38002; test antibody 38002) VH: QVQLQQWGAGLLKPSETLSLTCAVYGGSLSGYPWSWIRQPPGKGLEWIGETDVSGWTDYNPSLKSRVTISVDTSKNQFSLKLSSVTAADTAVYYCARDGRRMGTPSFDIWGQGTMVTVSS VL: DIQMTQSPSSVSASVGDRVTITCRASQDINSFLAWYQQKPGKAPKLLIYAASSLNSGVPSRFSGSGSGTDFTLTISSLQPEDFATYYCQKSVYFPPTFGGGTKVEIKR", "ENDPOINT UNIT": "nM", "Kd": 0.727}
{"BINDER": "ADI-38004 (antibody, V domains shown) VH: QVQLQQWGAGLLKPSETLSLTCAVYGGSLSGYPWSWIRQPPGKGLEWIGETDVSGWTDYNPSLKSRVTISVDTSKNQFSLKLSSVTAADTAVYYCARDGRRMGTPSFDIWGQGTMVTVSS VL: DIQMTQSPSSVSASVGDRVTITCRASQGISSFLAWYQQKPGKAPKLLIYAASSLNSGVPSRFSGSGSGTDFTLTISSLQPEDFATYYCQSAVYFPPTFGGGTKVEIKR", "ENDPOINT UNIT": "nM", "Kd": 1.24}
{"BINDER": "ADI-37464 (antibody, V domains shown) VH: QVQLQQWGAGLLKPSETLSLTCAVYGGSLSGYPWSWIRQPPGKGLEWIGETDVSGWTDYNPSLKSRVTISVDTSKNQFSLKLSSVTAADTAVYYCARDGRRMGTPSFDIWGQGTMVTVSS VL: DIQMTQSPSSVSASVGDRVTITCRASQGINSFLAWYQQKPGKAPKLLIYAASSLNSGVPSRFSGSGSGTDFTLTISSLQPEDFATYYCQKAVYFPPTFGGGTKVEIKR", "ENDPOINT UNIT": "nM", "Kd": 0.508}
